I'd appreciate it if you could supply MIC Streptococcus agalactiae (GC 4564) values for the items below.
System: Streptococcus sp.
assay: in vitro antibacterial evaluation, MIC by broth dilution
Assay type: cell-based
particulars: broth dilution, 18 hours at 35° C.
Reply numerically in µg/mL, unit not repeated.

[in] For the molecule COc1ccc2cc(COCC3OC(OC4C(CO)OC(Oc5ccc(CC6NC(=O)C(C(C)c7ccccc7)NC(=O)CNC(=O)C(CO)NC(=O)C(CC7CNC(=N)N7C7OC(CO)C(O)C(O)C7O)NC(=O)C(CC7CNC(=N)N7)NC6=O)cc5)C(O)C4O)C(O)C(O)C3O)ccc2c1 (stereo not shown) , give its measured MIC Streptococcus agalactiae (GC 4564) value.
[out] 4

[in] For the molecule COc1ccc2cc(COC3C(OC4C(CO)OC(Oc5ccc(CC6NC(=O)C(C(C)c7ccccc7)NC(=O)CNC(=O)C(CO)NC(=O)C(C(O)C7CNC(=N)N7C7OC(CO)C(O)C(O)C7O)NC(=O)C(C(O)C7CNC(=N)N7)NC6=O)cc5)C(O)C4O)OC(CO)C(O)C3O)ccc2c1 (stereo not shown) [Example 230c] , give its measured MIC Streptococcus agalactiae (GC 4564) value.
[out] 32

[in] For the molecule CC(c1ccc(Cl)cc1)C1NC(=O)CNC(=O)C(CO)NC(=O)C(C(O)C2CNC(=N)N2C2OC(CO)C(O)C(O)C2O)NC(=O)C(C(O)C2CNC(=N)N2)NC(=O)C(Cc2ccc(OC3OC(CO)C(OC4OC5COC(c6ccccc6)OC5C(O)C4O)C(O)C3O)cc2)NC1=O (stereo not shown) , give its measured MIC Streptococcus agalactiae (GC 4564) value.
[out] 0.5

[in] For the molecule COc1ccc(COCC2OC(OC3C(CO)OC(Oc4ccc(CC5NC(=O)C(C(C)c6ccccc6)NC(=O)CNC(=O)C(CO)NC(=O)C(C(O)C6CNC(=N)N6C6OC(CO)C(O)C(O)C6O)NC(=O)C(C(O)C6CNC(=N)N6)NC5=O)cc4)C(O)C3O)C(O)C(O)C2O)cc1 (stereo not shown) , give its measured MIC Streptococcus agalactiae (GC 4564) value.
[out] 2

====

System: Escherichia coli
assay: in vitro antibacterial evaluation, MIC by broth dilution
Assay type: cell-based
particulars: 18 hours at 35° C., strain GC 4560
recorded_metric: MIC Escherichia coli (GC 4560) (µg/mL)
Reply numerically in µg/mL, unit not repeated.

[in] For the compound COc1ccc(CC2OCC3OC(OC4C(CO)OC(Oc5ccc(CC6NC(=O)C(C(C)c7ccccc7)NC(=O)CNC(=O)C(CO)NC(=O)C(C(O)C7CNC(=N)N7C7OC(CO)C(O)C(O)C7O)NC(=O)C(C(O)C7CNC(=N)N7)NC6=O)cc5)C(O)C4O)C(O)C(O)C3O2)cc1 (stereo not shown) , give its measured MIC Escherichia coli (GC 4560) value.
[out] 1

[in] For the compound CC(c1ccccc1)C1NC(=O)CNC(=O)C(CO)NC(=O)C(C(O)C2CNC(=N)N2C2OC(CO)C(O)C(O)C2O)NC(=O)C(C(O)C2CNC(=N)N2)NC(=O)C(Cc2ccc(OC3OC(CO)C(OC4OC(COC(=O)CCC5CCCC5)C(O)C(O)C4O)C(O)C3O)cc2)NC1=O (stereo not shown) [Example 100c] , give its measured MIC Escherichia coli (GC 4560) value.
[out] 0.5

[in] For the compound CC(c1ccccc1)C1NC(=O)CNC(=O)C(CO)NC(=O)C(C(O)C2CNC(=N)N2C2OC(CO)C(O)C(O)C2O)NC(=O)C(C(O)C2CNC(=N)N2)NC(=O)C(Cc2ccc(OC3OC(CO)C(OC4OC5COC(Cc6ccc(Br)cc6)OC5C(O)C4O)C(O)C3O)cc2)NC1=O (stereo not shown) , give its measured MIC Escherichia coli (GC 4560) value.
[out] 1
